# assayInfo: yeast display, Sf9 membrane polyspecificity reagent, FACS + sequencing; frameworks hold sequencing errors
reportedProperty: polyreactivity (PSR sort gate)

chainSequence: QVQLVESGGGIVQAGGSLRLSCAASGFIFHLYGMGWYRQAPGKERELVAAISSGGRTYYADSVKGRFTISRDNAKNTVSLQMNSLKPEDTAVYSCAVYVAYLYSYYYWGQGTQVNVSS
experimentalValue: low polyreactivity

chainSequence: QVQLVESGGGLVQAGGSLRLSCAASGRTLRYNTMGWYRQAPGKERELVAAITRSGTGTNYADSVKGRFTISRDNAKNTVYLQMNSLKPEDTAVYYCAAAPFPRRRYDYWGQGTQVTVSS
experimentalValue: high polyreactivity

chainSequence: QVQLVESGGGLVQAGGSLRLSCAASGITFGYYAMGWYRQAPGKERELVASISWSGDSTYYADSVKGRFTISRDNAKNTVYLQMNSLKPEDTAVYYCNRGSSWEYGAEYNYWGQGTQETVSS
experimentalValue: low polyreactivity

chainSequence: QVQLVESGGGLVQAGGSLRLSCAASGSIFGVYAMGWYRQAPGKEREFVAAITKRGGSTYYADSVKGRFTISRDNAKNTVYLQMNSLKPEDTAVYYCAARYGRYISSRYGSWGQGTQVTVSS
experimentalValue: high polyreactivity

chainSequence: QVQLVESGGGLGQAGGSLRLSCAASGIIFQYYAMGWYRPAPGKERELVAVISSSGTNTYYADSVKGRFTISRDNAKNTVYLQMNSLKPEDTAVYYCNKVYRWFTRFDYWGQGTQVTVSS
experimentalValue: high polyreactivity

chainSequence: QVQLVESGGGLVQAGGSLRLSCAASGSIFWPYAMGWYRQAPGKERELVAAISSSGTSTYYADSVKGRFTISRDNAKNTVYLQMNSLKPEDTAVYYCAKELFTYPYEYWGQGTQVTVSS
experimentalValue: low polyreactivity

chainSequence: QVQLVESGGGLVQAGGSLRLSCAASGSIFLYYAMGWYRQAPGKERELVATIRGSGSSTYYADSVKGRFTISRDNAKNTVYLQMNSLKPEDTAVYYCAAKGYRWFRHGGYYFKFDYWGQGTQVTVSS
experimentalValue: high polyreactivity

chainSequence: QVQLVESGGGLVQAGGSLRLSCAASGITFGKNAMGWYRQAPGKESEFVAAISWGGGRTYYADSVKGRFTISRDNAKNTVYLQMNSLKPEDTAVYYCNVGPRAGWYRSNYDYWGQGTQVTVSS
experimentalValue: low polyreactivity

chainSequence: QVQLVESGGGLVQAGGSLRLSCAASGRTFWANTMGWYRQAPGKERELVAAISKRGGSTYYADSVKGRFTISRDNAKNTVYLQMISLKPEDTAVFYCNADKSGWYDYWGQGTQVTVSS
experimentalValue: high polyreactivity

chainSequence: QVQLVESGGGLDQAGGSLRLSCAASGSTFDSNTMGRSRQAPGKERELDAAITVSGGSTHYADSVKGRFTISRDNAKNTVYLQMNSLKPEDTAVYYCNRRSYGYGAFSGYDYWGQGTQVTVSS
experimentalValue: low polyreactivity

chainSequence: QVQLVESGGGLVQAGGSLRLSCAASGSIFEYYAMGWYRQAPGKERELVATITTRGGSTYYADSVKGRFTLSRDNAKNTVSLQMKCLKPEDTAVYYCNARAAYYGRGTLLRRNYWGQGTQVTVSS
experimentalValue: high polyreactivity

###

# assayInfo: yeast display, Sf9 membrane polyspecificity reagent, FACS + sequencing; frameworks hold sequencing errors

chainSequence: QVQLVESGGGLVQAGGSLRLSCAASGLIYVTNAMGCYRQAPGKERELVAAITSVGSTNYADSVKGRFTISRDNAKNTVYLQMNSLKPEDTAVYYCAAGVIADQSIGPTWSGSEGDYWGQGTQVTVSS
polyreactivity (PSR sort gate): low polyreactivity
--
chainSequence: QVQLVESGGALVQAGGSLRLSCDASGSTLWDYAMGWYRQAPRKERELVAASTQSTGDTHYADSVKGRFTLSRDNAKNTVYFQMNSLKPEDTAVYYCAADSYLSVYDPYGYWGQGTQVTVSS
polyreactivity (PSR sort gate): low polyreactivity
--
chainSequence: QVQLVESGGGLVQAGGSLRLSCAASGNIFGWYAMGWYRQAPGKERELVAAISSGGRTNYADSVKGRFTISRDNAKNTVYLQMNSLKPEDTAVYYCAAERKLYGLYDYWGQGTQVTVSS
polyreactivity (PSR sort gate): low polyreactivity

###

# assayInfo: yeast display, Sf9 membrane polyspecificity reagent, FACS + sequencing; frameworks hold sequencing errors

chainSequence: QVQLVESGGGLVQAGGSLRVSCAASGSIFYQYAMGWYRQAPGKERELVAAISTTGGRTYYADSVKGRFTISRDNAKNTVYLQMNSLKPEDTAVYYCAAYKYYGYDYWGQGTQVTVSS
polyreactivity (PSR sort gate): high polyreactivity
--
chainSequence: QVQLVESGGGLVQAGGSHRLSCAASGSTFRYYPMGWYRQAPGKERELVARITSRAGRTYYADSVKGRFTISRDNAKNTVYLQMNSVKPEDTAVYYCNANRFRRYDWGQGTQVTVSS
polyreactivity (PSR sort gate): high polyreactivity
--
chainSequence: QVQLVESGGGLLQAGGSLRLSCAASGITFTSYVMGWYRQAPGKERELVAAIRWSGGRTYYADSVKGRFTISRDNAKYTVYLQMNSLKPEDTAVYYCNRVTRSHVDYWGQGTQVTVSS
polyreactivity (PSR sort gate): high polyreactivity

###

# assayInfo: yeast display, Sf9 membrane polyspecificity reagent, FACS + sequencing; frameworks hold sequencing errors
reportedProperty: polyreactivity (PSR sort gate)

chainSequence: QVQLVESGGGLGQAGGSLRLSCAASGSIFPAYAMGCYRQAPGKERELVAAITFSGGSTYYADSVKGRFTISRDNAKNTVYLQMNSLKPEDTAVYYCATDSYGWRFNRAITSYGGDYWGQGTQVTVSS
experimentalValue: low polyreactivity

chainSequence: QVQLVESGGGLVQAGGSLRLSCAASGRTFYIYAMGWYRQAPGTERELVAAITWSGGTTYYADSVKGRFTISRDNAKNTVYLQMNSLKPEDTAVYYCAADRYGFYLESYYWGQGTQVTVSS
experimentalValue: low polyreactivity

chainSequence: QVQLVESGGGLVQAGGSLRLSCAASGLTFKRYAMGWYRQAPGKERELVASITGNGGSTYYADSVKGRFTISRDNAKNTVYLQMNSLKPEDTAVYYCNARRYVRTSQQPLYDYWGQGTQVTVSS
experimentalValue: high polyreactivity

chainSequence: QVQLVESGGGLVQAGGSLRLSCAASGSTFGFYAMGWYRQAPGKERELVAAITGGGSTNYADSVKGRFTISRDNAKNTVYLQMNSLNPEDTAVYYCAVVQRYWYPGIVPYDYWGQGTQVTVSS
experimentalValue: high polyreactivity

chainSequence: QVQLVESGGGLVQAGGSLRLSCAASGSTFPPNAMGWYRQAPGKERELVADSSDSSTYYADSVKGRFTISRDNAKNTVYLQMNSLKPEDTAVYYCAAADAGLRSKSYGQQYDYWGQGTQVTVSS
experimentalValue: low polyreactivity

chainSequence: QVQLVESGGGLVQAGGSLRLSCAASGSTFSINAMGWYRQAPGKERELVAAISSGGSTYYADSVKGRFTISRDNAKNTVYLQMNSLKPEDTAVYYCAVDPPWTYWSTYRYDYWGQGTQVTVSS
experimentalValue: low polyreactivity

chainSequence: QVQLVESRGGLVQAGGSLRLSCAASGSTFPGYAMGWYRQPPGKERELVAAINWRGASTYYADSVKGRFTMSRDNAKNTVYLQMNSLKPEDTAVYYCAGKYNHVTDEYEYWGQGTQVTVSS
experimentalValue: high polyreactivity

chainSequence: QVQLVESGGGLVQAGGSLRLSCAASGLIFPWNAMGWYRQAPGKERELVAAINGRDGSTYYADSVKGLFTISRDNAKNTVYLQMNSLKPEDTAVYYCAKGPSGVRTYREYDSWGQGPQVTVSS
experimentalValue: low polyreactivity

chainSequence: QVQLVESGGGLVQAGGSLRLSCAASGITFDYNAMGWYRQAPGKERELVADISASGDSTYYADSVKGRFTISRDNAKNTVYLQMNSLKPEDTAVYYCNTAYWYSWGYDYWGQGTQVTVSS
experimentalValue: low polyreactivity

###

# assayInfo: yeast display, Sf9 membrane polyspecificity reagent, FACS + sequencing; frameworks hold sequencing errors

chainSequence: QVQLEESGGGLVQAGGSLRLSCAASGIIFSPYAMGWYIQAPWKERELVAAINFSTGRTYYADSVKGRFTISRDNAKNTVYLQMNSLKPEDTAVYYCAAGKYPYVFRGGYDYWGQGTQVTVSS
polyreactivity (PSR sort gate): low polyreactivity
//
chainSequence: QVQLVESGGGLVQAGGSLRLSCAASGLTFVNYAMGWYRQAPGKERELVATISKTGGSTYYADSVKGRFTISRDNAKNTVYLQMNSLKPEDTAVYYCAVDAFYYKWYDYWGQGTQVTVSS
polyreactivity (PSR sort gate): high polyreactivity
//
chainSequence: QVQLVESGGVLVQPGGSLRLSCAASGSTFQSYTMGWYRQAPGKERELVAAISSSGGRTYYADSVKGRFTISRDNEKNTVYLQMNRLKPEDTAVYYCAAVTKSWRGATWYDYWGQGTHVTVSS
polyreactivity (PSR sort gate): high polyreactivity
//
chainSequence: QVQLVESGGGLVQAGGSLRLSCAASGSTFRYIAMGWYRQAPGKERELVAAISRGGSTNYADSVKGRFTISRDNAKNSVYLQMNSLKPEDTAVYYCAASGTRRGTAVWRVKPGDYWGQGTQVTVSS
polyreactivity (PSR sort gate): high polyreactivity
//
chainSequence: QVQLVESGGGLVQAGGSLRLSCAASGSTFDIYAMGCYRQAPGKERELVAAITFSGGSTYADSVKGRFTISRDNAKNTVYFQMNSLKPEDTAVYYCAVDGGEFSSYGYWGQGTQVTVSS
polyreactivity (PSR sort gate): low polyreactivity
//
chainSequence: QVQLVESGGGLVQAGGSLRLSCAASGRIFVYNAMGWYRQAPGQERELVAAISRGGSTNYADSVKGRFTISRDNAKNTVYLQMNSLKPEDTAVYYCAADIYQYGYDYWGQGTQVTVSS
polyreactivity (PSR sort gate): low polyreactivity
//
chainSequence: QVQLVESGGGLVQAGGSLRLSCAASGRIFPTYTMGWYRQAPGKERELVAAITSGGTTYYADSVKGLFTISRDNAKNTVYLQMNSLKPEDTAVYSCAALRPRRGYYYWGQGTQVTVSS
polyreactivity (PSR sort gate): high polyreactivity
//
chainSequence: QVQLVESGGGLVQAGGRLRLSCAASGRIFYPYDMGWYRQEPGKERELVAAISRSDGITYYADSVKGRFTISRDNAKNTVYLQMKSLKPEDTPVYYCAADDPSGHYPDFEYWGQGTQVTVSS
polyreactivity (PSR sort gate): low polyreactivity
//
chainSequence: QVQLVESGGCLVQAGGSVRLSCDASGITFVGNDMGWYRQAPGKERELVAAISSGSTHYADSVKGRFTISRDNAKNTVYLLMNSLKPEDTAFYYCAADIRGGLSNYSPKDYDYWGLGTQVTVSS
polyreactivity (PSR sort gate): low polyreactivity
//
chainSequence: QVQLVESGGGLVQAGGRLRLSCAASGFTFGWNAMGWYRQAPGKEREMVASIYSGDSTYYADSVKGRFTISRDNAKNTVYLQMNSLKPEDTAVYYCATAPYVTSRRYGPYEYWGQGTQVTVSS
polyreactivity (PSR sort gate): low polyreactivity

Taken from the nanobody polyreactivity screen of Harvey et al. (2022).
